molecular target: CREB-binding protein (Homo sapiens); assay: Selectivity interaction (BROMOscan (Eurofins)) EUB0002282a CREBBP
pKd: −log10 of the molar value.
endpoint-name: pKd

INSERT INTO assay_data (compound_string, study_system, endpoint_value) VALUES
  ('Cc1cc(-c2ccc3nc(C4CCOCC4)n(CCOC(F)(F)F)c3c2)cn(C)c1=O', 'CREB-binding protein (Homo sapiens)', 7.64);

* * *

biological target: Caspase-8 (Homo sapiens, UniProt Q14790); assay: Selectivity interaction (Enzymatic assay) EUB0002178aAD CASP8; set-up: recommended concentration 1 uM
Sequence (Q14790 217-374 limits assumed): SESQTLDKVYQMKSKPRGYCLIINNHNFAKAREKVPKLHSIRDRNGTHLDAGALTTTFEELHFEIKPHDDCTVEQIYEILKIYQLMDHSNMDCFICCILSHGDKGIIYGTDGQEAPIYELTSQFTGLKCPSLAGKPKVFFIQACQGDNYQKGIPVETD
Sequence (Q14790 385-479 limits assumed): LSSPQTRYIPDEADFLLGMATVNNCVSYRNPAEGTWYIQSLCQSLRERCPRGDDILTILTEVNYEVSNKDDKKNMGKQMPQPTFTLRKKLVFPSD
pIC50: −log10 of the molar value. Where a SMILES comes first, the peptide text is derived from it.
endpoint-name: pIC50

INSERT INTO measurements (compound, endpoint_value) VALUES
  ('CC[C@H](C)[C@H](NC(=O)[C@H](CCC(=O)O)NC(=O)[C@@H](NC(C)=O)C(C)C)C(=O)N[C@H](C=O)CC(=O)O (Ac-VEID-aldehyde)', 7.59);

* * *

Molecular target: Muscarinic acetylcholine receptor M4 (Homo sapiens)
Sequence (P08173 whole entry): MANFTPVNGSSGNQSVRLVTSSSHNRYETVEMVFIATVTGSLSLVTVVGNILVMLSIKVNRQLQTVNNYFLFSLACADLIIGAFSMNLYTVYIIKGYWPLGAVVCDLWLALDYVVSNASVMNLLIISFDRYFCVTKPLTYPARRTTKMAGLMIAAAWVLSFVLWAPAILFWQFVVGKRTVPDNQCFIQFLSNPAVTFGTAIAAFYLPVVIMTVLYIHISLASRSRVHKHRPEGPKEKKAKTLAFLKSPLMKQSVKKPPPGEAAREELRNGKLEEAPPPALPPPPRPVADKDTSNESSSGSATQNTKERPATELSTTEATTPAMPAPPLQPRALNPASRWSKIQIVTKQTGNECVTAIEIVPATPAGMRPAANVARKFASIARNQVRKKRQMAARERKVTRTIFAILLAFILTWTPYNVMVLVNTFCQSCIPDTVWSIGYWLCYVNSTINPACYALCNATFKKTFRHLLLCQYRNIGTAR
Assay: Selectivity interaction (US National Institute of Mental Health's Psychoactive Drug Screen Program Selectivity Panel) EUB0001125a CHRM4
pKi: −log10 of the molar value.
endpoint-name: pKi

INSERT INTO assay_data (compound_string, endpoint_value) VALUES
  ('COc1cc2c(NC3CCN(C(C)C)CC3)nc(C3CCCCC3)nc2cc1OCCCN1CCCC1', 6.29);

* * *

Target: Caspase-2 (Homo sapiens, UniProt P42575)
Sequence (P42575 whole entry): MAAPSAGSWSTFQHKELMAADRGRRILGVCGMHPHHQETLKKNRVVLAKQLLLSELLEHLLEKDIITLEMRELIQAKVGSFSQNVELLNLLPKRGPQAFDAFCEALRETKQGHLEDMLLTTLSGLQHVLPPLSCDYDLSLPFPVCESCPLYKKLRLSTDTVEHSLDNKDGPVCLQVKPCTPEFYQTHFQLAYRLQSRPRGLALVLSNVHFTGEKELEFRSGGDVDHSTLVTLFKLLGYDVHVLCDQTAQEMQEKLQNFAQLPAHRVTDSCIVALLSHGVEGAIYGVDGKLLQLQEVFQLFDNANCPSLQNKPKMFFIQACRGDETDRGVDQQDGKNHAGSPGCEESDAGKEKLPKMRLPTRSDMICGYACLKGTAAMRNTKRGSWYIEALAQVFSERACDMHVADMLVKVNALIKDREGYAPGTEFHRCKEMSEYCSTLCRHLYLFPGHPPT
Experiment: Selectivity interaction (Eurofins (enzymatic assay)) EUB0002201a CASP2
pIC50: −log10 of the molar value. Where a SMILES comes first, the peptide text is derived from it.
endpoint-name: pIC50

INSERT INTO measurements (compound, study_system, endpoint_value) VALUES
  ('CC(=O)N[C@@H](CC(C)C)C(=O)N[C@@H](CCC(=O)O)C(=O)N[C@H](C(=O)N[C@H](C=O)CC(=O)O)C(C)C (Ac-LEVD-aldehyde)', 'Caspase-2 (Homo sapiens, UniProt P42575)', 5.77);

* * *

target: Caspase-3 (Homo sapiens); experiment: Selectivity interaction (Eurofins (enzymatic assay)) EUB0002201a CASP3
Sequence (P42574 29-175 limits assumed): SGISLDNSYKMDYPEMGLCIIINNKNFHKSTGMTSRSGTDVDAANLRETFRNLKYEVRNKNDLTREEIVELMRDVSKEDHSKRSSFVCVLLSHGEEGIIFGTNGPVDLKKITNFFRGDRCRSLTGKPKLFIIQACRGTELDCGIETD
Sequence (P42574 176-277 limits assumed): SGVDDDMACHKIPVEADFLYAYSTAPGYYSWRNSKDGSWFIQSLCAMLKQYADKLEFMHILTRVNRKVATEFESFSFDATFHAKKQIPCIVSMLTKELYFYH
Where a SMILES comes first, the peptide text is derived from it.
endpoint-name: IC50 (nM)

INSERT INTO assay_data (molecule, endpoint_name, endpoint_value) VALUES
  ('CC(=O)N[C@@H](CC(C)C)C(=O)N[C@@H](CCC(=O)O)C(=O)N[C@H](C(=O)N[C@H](C=O)CC(=O)O)C(C)C (Ac-LEVD-aldehyde)', 'IC50', 57);

* * *

Biological target: Caspase-9 (Homo sapiens, UniProt P55211)
Sequence (P55211 whole entry): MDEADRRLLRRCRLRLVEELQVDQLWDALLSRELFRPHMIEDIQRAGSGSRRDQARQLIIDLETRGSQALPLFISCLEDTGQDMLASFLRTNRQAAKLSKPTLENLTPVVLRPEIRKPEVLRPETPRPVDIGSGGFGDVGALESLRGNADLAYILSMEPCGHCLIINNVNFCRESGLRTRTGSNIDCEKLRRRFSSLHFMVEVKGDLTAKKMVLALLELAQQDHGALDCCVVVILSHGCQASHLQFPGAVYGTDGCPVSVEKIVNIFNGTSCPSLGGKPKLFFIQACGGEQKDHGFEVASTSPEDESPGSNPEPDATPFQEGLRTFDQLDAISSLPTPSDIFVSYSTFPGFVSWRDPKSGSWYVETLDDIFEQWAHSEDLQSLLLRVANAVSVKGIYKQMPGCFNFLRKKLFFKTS
Assay: Selectivity interaction (Enzymatic assay) EUB0002178aAD CASP9
Parameters: recommended concentration 1 uM
pIC50: −log10 of the molar value. Where a SMILES comes first, the peptide text is derived from it.
endpoint-name: pIC50

INSERT INTO measurements (molecule, study_system, endpoint_name, endpoint_value) VALUES
  ('CC[C@H](C)[C@H](NC(=O)[C@H](CCC(=O)O)NC(=O)[C@@H](NC(C)=O)C(C)C)C(=O)N[C@H](C=O)CC(=O)O (Ac-VEID-aldehyde)', 'Caspase-9 (Homo sapiens, UniProt P55211)', 'pIC50', 8.70);

* * *

target: UniProtKB P55210; test: Selectivity interaction (Enzymatic assay) EUB0002178aAD CASP7; parameters: recommended concentration 1 uM
Sequence (P55210 24-198 limits assumed): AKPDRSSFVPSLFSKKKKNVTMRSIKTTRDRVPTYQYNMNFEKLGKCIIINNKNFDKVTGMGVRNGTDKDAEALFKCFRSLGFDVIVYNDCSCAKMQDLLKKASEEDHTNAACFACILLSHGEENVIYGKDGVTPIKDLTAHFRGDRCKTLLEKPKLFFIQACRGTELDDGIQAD
Sequence (P55210 207-303 limits assumed): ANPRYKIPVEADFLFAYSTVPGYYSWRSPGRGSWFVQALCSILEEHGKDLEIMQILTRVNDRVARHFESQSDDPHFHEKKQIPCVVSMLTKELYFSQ
Where a SMILES comes first, the peptide text is derived from it.
endpoint-name: IC50 (nM)

INSERT INTO results (compound, endpoint_name, endpoint_value) VALUES
  ('CC[C@H](C)[C@H](NC(=O)[C@H](CCC(=O)O)NC(=O)[C@@H](NC(C)=O)C(C)C)C(=O)N[C@H](C=O)CC(=O)O (Ac-VEID-aldehyde)', 'IC50', 162);

* * *

molecular target: Caspase-8 (Homo sapiens, UniProt Q14790); test: Selectivity interaction (Eurofins (enzymatic assay)) EUB0002202a CASP8; design: recommended concentration 1 uM
Where a SMILES comes first, the peptide text is derived from it. The star is where a group is joined. Cbz = O=C(OCc1ccccc1)*; CH2F = FC*
endpoint-name: IC50 (µM)

INSERT INTO results (compound, endpoint_value) VALUES
  ('COC(=O)CC[C@H](NC(=O)[C@H](Cc1c[nH]c2ccccc12)NC(=O)OCc1ccccc1)C(=O)N[C@@H](Cc1cnc[nH]1)C(=O)N[C@@H](CC(=O)OC)C(=O)CF (Cbz-WE(OMe)HD(OMe)-CH2F)', 0.22);

* * *

target: Bromodomain adjacent to zinc finger domain protein 2B (Homo sapiens); assay: Selectivity interaction (BROMOscan (Eurofins)) EUB0002282a BAZ2B
Sequence (Q9UIF8 whole entry, the tested form may be a part): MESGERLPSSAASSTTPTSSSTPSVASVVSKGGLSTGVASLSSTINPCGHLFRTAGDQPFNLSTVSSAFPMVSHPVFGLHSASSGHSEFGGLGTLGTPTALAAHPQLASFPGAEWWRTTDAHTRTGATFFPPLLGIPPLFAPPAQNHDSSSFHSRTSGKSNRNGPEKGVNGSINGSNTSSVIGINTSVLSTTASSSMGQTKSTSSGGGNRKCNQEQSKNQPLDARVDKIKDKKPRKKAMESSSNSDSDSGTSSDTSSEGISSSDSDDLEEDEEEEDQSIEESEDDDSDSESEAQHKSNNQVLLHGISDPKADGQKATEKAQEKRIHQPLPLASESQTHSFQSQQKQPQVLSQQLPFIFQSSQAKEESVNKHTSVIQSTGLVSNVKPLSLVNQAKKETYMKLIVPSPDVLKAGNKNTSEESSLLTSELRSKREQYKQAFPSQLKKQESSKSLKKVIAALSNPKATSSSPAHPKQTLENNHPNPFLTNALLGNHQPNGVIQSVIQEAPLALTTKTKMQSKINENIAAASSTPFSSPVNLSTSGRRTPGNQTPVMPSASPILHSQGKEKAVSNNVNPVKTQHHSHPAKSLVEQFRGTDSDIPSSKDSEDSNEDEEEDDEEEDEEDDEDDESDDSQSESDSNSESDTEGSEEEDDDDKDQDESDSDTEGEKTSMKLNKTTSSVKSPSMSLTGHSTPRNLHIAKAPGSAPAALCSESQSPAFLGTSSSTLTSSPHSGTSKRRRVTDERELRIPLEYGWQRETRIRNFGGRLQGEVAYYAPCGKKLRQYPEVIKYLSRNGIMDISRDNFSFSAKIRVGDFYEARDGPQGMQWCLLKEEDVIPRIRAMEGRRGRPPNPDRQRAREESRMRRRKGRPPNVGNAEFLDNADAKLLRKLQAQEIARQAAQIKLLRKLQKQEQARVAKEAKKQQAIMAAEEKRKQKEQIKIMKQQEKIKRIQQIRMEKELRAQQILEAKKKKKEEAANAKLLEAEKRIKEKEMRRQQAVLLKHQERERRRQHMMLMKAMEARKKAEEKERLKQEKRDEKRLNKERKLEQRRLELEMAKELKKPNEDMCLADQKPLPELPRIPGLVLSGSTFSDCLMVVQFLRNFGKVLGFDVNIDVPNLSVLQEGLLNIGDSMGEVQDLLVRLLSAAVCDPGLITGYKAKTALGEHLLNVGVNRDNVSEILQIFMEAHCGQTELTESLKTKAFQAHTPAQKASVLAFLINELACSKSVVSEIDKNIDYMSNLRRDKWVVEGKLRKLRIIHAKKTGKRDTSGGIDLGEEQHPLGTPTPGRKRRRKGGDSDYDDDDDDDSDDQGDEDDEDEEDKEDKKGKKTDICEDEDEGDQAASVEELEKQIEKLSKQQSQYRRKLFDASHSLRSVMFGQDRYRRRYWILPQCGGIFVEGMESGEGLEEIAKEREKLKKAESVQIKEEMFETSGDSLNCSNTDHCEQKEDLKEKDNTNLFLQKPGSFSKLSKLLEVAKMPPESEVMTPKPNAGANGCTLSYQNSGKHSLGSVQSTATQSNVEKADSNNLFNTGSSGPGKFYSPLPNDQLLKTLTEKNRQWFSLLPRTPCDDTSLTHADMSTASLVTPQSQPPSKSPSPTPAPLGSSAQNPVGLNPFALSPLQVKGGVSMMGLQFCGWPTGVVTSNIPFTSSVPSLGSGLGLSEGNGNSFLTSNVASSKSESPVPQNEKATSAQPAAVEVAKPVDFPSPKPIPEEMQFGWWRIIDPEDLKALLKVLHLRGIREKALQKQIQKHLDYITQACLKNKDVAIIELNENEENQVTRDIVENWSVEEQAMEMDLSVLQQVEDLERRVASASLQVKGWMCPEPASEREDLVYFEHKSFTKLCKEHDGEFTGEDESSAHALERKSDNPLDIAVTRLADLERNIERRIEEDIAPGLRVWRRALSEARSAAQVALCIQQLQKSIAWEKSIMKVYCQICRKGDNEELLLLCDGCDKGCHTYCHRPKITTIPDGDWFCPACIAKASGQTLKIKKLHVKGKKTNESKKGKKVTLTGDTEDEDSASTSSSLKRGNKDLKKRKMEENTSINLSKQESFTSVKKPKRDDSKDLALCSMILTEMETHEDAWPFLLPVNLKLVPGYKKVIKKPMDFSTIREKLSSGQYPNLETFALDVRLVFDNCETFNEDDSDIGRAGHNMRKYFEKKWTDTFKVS
pKd: −log10 of the molar value.
endpoint-name: pKd

INSERT INTO results (compound_string, endpoint_value) VALUES
  ('Cc1cc(-c2ccc3nc(C4CCOCC4)n(CCOC(F)(F)F)c3c2)cn(C)c1=O', 6.72);

* * *

molecular target: Poly [ADP-ribose] polymerase tankyrase-1 (Homo sapiens, UniProt O95271); test: Selectivity interaction (Enzymatic assay) EUB0002249a TNKS1
Sequence (O95271 whole entry): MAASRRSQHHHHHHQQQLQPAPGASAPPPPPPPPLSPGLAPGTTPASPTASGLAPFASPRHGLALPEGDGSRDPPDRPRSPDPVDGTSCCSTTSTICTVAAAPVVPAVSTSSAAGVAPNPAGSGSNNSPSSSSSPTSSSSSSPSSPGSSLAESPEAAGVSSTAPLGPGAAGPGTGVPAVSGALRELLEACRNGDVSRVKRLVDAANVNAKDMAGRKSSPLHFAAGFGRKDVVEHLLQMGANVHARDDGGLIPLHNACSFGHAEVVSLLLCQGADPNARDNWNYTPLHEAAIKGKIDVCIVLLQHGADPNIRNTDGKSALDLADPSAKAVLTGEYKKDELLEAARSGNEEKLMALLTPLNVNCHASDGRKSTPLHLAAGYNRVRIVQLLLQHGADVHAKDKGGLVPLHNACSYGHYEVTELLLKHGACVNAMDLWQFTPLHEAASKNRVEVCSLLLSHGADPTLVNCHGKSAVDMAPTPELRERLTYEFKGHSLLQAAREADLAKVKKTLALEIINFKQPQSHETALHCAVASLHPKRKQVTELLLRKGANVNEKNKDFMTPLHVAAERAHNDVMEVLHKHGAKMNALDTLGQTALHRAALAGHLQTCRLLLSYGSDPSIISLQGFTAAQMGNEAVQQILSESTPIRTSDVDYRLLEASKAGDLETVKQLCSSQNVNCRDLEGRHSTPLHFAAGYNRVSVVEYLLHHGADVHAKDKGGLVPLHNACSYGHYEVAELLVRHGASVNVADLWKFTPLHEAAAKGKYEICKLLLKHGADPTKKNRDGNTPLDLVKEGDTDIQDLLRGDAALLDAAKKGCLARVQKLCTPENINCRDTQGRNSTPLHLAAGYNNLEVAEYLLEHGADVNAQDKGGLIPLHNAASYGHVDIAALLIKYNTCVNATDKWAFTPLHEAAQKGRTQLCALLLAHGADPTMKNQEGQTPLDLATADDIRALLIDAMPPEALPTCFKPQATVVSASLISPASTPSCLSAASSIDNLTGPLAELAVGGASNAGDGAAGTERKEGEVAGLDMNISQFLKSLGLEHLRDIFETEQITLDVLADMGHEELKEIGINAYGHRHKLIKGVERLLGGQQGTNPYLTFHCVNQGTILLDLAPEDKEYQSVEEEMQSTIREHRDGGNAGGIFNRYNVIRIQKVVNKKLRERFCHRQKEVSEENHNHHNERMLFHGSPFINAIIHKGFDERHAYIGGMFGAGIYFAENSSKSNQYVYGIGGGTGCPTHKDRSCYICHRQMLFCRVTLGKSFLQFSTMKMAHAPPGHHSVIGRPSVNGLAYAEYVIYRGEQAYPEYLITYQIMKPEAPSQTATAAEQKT
pIC50: −log10 of the molar value.
endpoint-name: pIC50

INSERT INTO results (compound_string, endpoint_name, endpoint_value) VALUES
  ('NC(=O)c1cccc(NC(=O)CCC(=O)NCCc2cn(CCNS(=O)(=O)c3cccc(C(=O)O)c3)nn2)c1', 'pIC50', 5.04);

* * *

Biological target: UniProt:P56373
Sequence (P56373 whole entry): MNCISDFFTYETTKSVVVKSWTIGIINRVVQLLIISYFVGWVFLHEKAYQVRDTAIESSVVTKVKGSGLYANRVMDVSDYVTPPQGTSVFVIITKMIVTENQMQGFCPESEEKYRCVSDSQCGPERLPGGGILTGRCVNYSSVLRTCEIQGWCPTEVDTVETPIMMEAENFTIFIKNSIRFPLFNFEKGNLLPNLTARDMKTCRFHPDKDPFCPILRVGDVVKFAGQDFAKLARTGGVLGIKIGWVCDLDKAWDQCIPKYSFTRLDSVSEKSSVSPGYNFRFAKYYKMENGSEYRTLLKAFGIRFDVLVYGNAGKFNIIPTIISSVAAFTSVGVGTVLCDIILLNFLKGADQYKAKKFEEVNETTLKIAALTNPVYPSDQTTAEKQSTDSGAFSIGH
Experiment: Selectivity interaction (Patch-clamp recording assay) EUB0002673aCl P2RX3
endpoint-name: IC50 (nM)

INSERT INTO assay_data (compound_string, endpoint_name, measure_unit, endpoint_value) VALUES
  ('CCCCOc1c(OC)cc(C(=O)NCC2(N(C)C)CCOCC2)cc1OC', 'IC50', 'nM', 870);
